- Measurement target: Tyrosine-protein kinase Yes (Homo sapiens)
- Test context: at 1 µM
Property measured: residual activity (%)
Dear colleague, please return just the value in %, with no unit written.

Challenge: State the recorded residual activity for this entry: `COc1cc2nccc(Oc3ccc(NC(=O)Nc4cc(C)on4)c(Cl)c3)c2cc1OC`
Response given: 30

* * *

- Measurement target: Homeodomain-interacting protein kinase 3 (Homo sapiens)
- Test context: at 1 µM
Labelling field: enter MET if recorded residual activity is less than 90%. Enter NOT MET if it equals or exceeds that cut-off.

| Structure smiles | Assigned label |
| --- | --- |
| CN(C)S(=O)(=O)c1ccc2c(c1)/C(=C/c1cc3c([nH]1)CCCC3)C(=O)N2 | NOT MET |
| O=C(c1cc2cc(O)ccc2[nH]1)c1cc2cc(O)ccc2[nH]1 | MET |
| Nc1ncnc2c1c(-c1ccc(Oc3ccccc3)cc1)cn2C1CCCC1 | MET |
| Nc1ncnc2c1cnn2-c1ccccc1 | NOT MET |
| CC(C)N(CCC(=O)c1ccc2ccccc2c1)Cc1ccccc1 | MET |

Challenge: Determine whether this molecule shows residual activity lower than 90% (ties excluded): `c1ccc(-c2cnc(Nc3ccc(OCCN4CCCC4)cc3)s2)cc1`
Response given: MET

* * *

- Measurement target: Rho-associated protein kinase 1 (Homo sapiens) (UniProt Q13464)
- Sequence (Q13464 2-1354 limits assumed): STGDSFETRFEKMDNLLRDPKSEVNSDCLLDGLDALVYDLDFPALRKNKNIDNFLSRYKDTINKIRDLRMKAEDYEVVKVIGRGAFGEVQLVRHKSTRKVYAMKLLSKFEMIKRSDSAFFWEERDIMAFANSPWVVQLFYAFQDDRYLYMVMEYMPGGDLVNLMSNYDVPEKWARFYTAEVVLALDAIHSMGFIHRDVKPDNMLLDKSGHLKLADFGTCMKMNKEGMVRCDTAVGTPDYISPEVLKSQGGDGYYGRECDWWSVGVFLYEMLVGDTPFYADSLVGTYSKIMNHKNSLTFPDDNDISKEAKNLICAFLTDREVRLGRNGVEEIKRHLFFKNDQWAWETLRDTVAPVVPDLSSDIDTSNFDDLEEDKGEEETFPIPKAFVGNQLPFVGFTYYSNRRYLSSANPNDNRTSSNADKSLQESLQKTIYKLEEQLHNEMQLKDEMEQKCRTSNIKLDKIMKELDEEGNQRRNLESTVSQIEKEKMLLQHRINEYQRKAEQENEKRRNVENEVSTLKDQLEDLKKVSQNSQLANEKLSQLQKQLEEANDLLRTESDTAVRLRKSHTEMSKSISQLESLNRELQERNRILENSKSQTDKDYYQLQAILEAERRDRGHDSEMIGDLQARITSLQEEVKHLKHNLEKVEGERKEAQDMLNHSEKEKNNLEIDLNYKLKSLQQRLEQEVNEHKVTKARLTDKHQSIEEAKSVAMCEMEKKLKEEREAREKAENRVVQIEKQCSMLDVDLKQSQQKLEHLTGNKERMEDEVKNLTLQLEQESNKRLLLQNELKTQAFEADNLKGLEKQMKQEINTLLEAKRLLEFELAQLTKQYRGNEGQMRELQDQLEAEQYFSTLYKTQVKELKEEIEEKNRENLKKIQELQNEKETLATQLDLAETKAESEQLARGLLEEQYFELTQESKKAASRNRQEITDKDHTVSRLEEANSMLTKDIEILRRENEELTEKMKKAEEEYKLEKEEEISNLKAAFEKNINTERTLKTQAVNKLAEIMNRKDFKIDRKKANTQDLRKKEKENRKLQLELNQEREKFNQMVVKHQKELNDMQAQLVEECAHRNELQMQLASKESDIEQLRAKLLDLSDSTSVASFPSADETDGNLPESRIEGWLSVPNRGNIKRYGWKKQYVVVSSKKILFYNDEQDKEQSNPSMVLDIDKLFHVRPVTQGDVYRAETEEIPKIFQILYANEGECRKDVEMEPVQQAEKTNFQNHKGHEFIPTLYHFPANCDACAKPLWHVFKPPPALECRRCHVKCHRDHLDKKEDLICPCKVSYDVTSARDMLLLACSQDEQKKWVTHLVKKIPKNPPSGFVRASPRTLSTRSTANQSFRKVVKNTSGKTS
- Test context: at 1 µM
Recorded residual activity, one value per entry.
Only the number, expressed in %, is required.

Examples with their reported residual activity follow.
| Structure smiles | Units | residual activity |
| --- | --- | --- |
| Oc1cccc(-c2nc(N3CCOCC3)c3oc4ncccc4c3n2)c1 | % | 123 |
| COc1ccc(COc2ccc(Cc3cnc(N)nc3N)cc2OC)cc1 | % | 112 |
| Nc1nccc(-c2c(-c3ccc(F)cc3)ncn2C2CCNCC2)n1 | % | 128 |

Challenge: I'd like to know its residual activity. The molecule in question is `Cn1c2ccccc2c2c3c(c4c5ccccc5n(CCC#N)c4c21)CNC3=O`
Response given: 98

* * *

- Measurement target: Calcium/calmodulin-dependent protein kinase type II subunit delta (Homo sapiens) (UniProt Q13557)
- Sequence (Q13557 whole entry): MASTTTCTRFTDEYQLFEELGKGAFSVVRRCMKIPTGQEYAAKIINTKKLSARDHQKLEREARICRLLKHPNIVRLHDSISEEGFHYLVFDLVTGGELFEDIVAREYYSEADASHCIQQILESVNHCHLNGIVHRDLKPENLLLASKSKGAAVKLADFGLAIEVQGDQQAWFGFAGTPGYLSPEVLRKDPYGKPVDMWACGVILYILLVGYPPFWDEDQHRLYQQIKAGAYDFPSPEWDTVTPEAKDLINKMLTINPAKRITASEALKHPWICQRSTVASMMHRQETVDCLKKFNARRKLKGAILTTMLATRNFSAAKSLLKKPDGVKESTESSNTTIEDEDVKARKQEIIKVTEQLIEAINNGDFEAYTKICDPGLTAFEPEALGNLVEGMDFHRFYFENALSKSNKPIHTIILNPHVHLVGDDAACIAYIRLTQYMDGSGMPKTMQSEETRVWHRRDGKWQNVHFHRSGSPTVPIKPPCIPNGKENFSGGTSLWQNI
- Test context: at 10 µM
Property measured: residual activity (%)
Value expressed in %; do not type the unit.

Observe how each entry below is paired with its result.
| Compound | Units | residual activity |
| --- | --- | --- |
| CN(C)S(=O)(=O)c1ccc2c(c1)/C(=C/c1cc3c([nH]1)CCCC3)C(=O)N2 | % | 13 |
| COc1cc2ncnc(Nc3cccc(Cl)c3)c2cc1OC | % | 18 |
| CSc1nc(-c2ccc(F)cc2)c(-c2ccnc(NC(C)c3ccccc3)c2)[nH]1 (stereo not drawn) | % | 83 |
| O=C(NC(NC(=S)Nc1ccc(F)c([N+](=O)[O-])c1)C(Cl)(Cl)Cl)C(c1ccccc1)c1ccccc1 (stereo not drawn) | % | 82 |

Challenge: Which measured residual activity value corresponds to `CCCCc1c(-c2ccc(O)cc2)[nH]c2nccnc12` ?
Response given: 22

* * *

- Measurement target: Calcium/calmodulin-dependent protein kinase type 1 (Homo sapiens) (UniProt Q14012)
- Sequence (Q14012 whole entry, looked up): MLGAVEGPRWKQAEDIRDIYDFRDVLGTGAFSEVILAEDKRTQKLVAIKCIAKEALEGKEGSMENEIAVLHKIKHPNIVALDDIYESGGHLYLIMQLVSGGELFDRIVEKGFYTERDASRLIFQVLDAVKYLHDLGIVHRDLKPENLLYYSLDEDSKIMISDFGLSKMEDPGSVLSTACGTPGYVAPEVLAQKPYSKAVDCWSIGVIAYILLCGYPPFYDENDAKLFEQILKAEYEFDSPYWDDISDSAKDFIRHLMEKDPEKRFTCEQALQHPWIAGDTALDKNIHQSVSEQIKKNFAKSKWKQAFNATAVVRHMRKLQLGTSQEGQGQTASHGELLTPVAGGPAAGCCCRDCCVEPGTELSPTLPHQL
- Test context: at 10 µM
Known residual activity of a selection of molecules
# do not omit the unit; it follows the number

| Molecule | residual activity |
| --- | --- |
| O=C1NC(=O)C(c2c[nH]c3ccccc23)=C1c1c[nH]c2ccccc12 | 57% |

Challenge: Look up residual activity with Calcium/calmodulin-dependent protein kinase type 1 (Homo sapiens) (UniProt Q14012) for this molecule: `Cn1c2ccccc2c2c3c(c4c5ccccc5n(CCC#N)c4c21)CNC3=O`
Response given: 32%

Challenge: Record O=C(NC(NC(=S)Nc1ccc(F)c([N+](=O)[O-])c1)C(Cl)(Cl)Cl)C(c1ccccc1)c1ccccc1 (centres undefined) : what is its residual activity with Calcium/calmodulin-dependent protein kinase type 1 (Homo sapiens) (UniProt Q14012)?
Response given: 91%

Challenge: Calcium/calmodulin-dependent protein kinase type 1 (Homo sapiens) (UniProt Q14012) / residual activity / `CN(C)S(=O)(=O)c1ccc2c(c1)/C(=C/c1cc3c([nH]1)CCCC3)C(=O)N2` : value?
Response given: 94%

Challenge: Quick check: residual activity on Calcium/calmodulin-dependent protein kinase type 1 (Homo sapiens) (UniProt Q14012), item `O=C1NC(=O)C(c2cn(CCCn3ccnc3)c3ccccc23)=C1Nc1ccccc1` ?
Response given: 53%

Challenge: Write down the reported residual activity of `COc1ccc2c(c1)c(C1=C(c3c[nH]c4ccccc34)C(=O)NC1=O)cn2CCCN(C)C` , test system: Calcium/calmodulin-dependent protein kinase type 1 (Homo sapiens) (UniProt Q14012).
Response given: 45%

Challenge: Request: residual activity, test system Calcium/calmodulin-dependent protein kinase type 1 (Homo sapiens) (UniProt Q14012), entry `O=C1NC(=O)c2c1c1c3ccccc3[nH]c1n1cncc21`
Response given: 36%

Challenge: Look up residual activity with Calcium/calmodulin-dependent protein kinase type 1 (Homo sapiens) (UniProt Q14012) for this molecule: `CC(C)N(CCC(=O)c1ccc2ccccc2c1)Cc1ccccc1`
Response given: 80%

Challenge: Give recorded residual activity with Calcium/calmodulin-dependent protein kinase type 1 (Homo sapiens) (UniProt Q14012) for the following molecule: `O=C1Cc2c([nH]c3ccc(Br)cc23)-c2ccccc2N1`
Response given: 74%

* * *

- Measurement target: Ephrin type-A receptor 7 (Homo sapiens) (UniProt Q15375)
- Sequence (Q15375 28-998 limits assumed): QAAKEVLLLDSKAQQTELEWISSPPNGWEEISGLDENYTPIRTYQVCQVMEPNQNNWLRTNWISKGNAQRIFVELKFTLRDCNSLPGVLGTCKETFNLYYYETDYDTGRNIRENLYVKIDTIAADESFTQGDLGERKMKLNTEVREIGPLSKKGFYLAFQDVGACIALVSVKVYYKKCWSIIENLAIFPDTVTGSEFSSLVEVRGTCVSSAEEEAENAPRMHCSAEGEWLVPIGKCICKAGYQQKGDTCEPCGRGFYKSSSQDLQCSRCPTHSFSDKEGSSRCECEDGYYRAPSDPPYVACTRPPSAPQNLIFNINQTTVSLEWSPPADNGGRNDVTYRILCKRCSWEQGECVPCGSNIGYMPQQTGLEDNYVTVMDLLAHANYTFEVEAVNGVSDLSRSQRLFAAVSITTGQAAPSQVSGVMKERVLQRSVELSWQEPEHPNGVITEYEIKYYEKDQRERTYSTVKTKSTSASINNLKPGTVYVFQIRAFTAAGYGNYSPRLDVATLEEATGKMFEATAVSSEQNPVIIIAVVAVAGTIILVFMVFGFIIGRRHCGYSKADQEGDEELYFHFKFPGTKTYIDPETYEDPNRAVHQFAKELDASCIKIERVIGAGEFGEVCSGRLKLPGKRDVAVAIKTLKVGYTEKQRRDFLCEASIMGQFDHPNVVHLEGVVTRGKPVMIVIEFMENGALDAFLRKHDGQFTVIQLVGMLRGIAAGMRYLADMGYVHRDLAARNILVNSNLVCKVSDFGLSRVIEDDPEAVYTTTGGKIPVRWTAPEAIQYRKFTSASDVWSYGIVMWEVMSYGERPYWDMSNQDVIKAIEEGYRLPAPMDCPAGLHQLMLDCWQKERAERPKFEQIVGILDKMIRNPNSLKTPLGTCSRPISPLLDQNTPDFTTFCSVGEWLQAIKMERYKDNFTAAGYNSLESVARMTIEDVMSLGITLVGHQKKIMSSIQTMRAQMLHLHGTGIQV
- Test context: at 1 µM
Each entry below lists one item and its recorded residual activity value.
Answer format: numeric, % implied, no suffix.

Consider the reported residual activity for these molecules:
| Structure smiles | Units | Measured |
| --- | --- | --- |
| Nc1nc(Nc2ccc(S(N)(=O)=O)cc2)nn1C(=O)c1c(F)cccc1F | % | 52 |
| CCN(CC)CCNC(=O)c1c(C)[nH]c(/C=C2\C(=O)Nc3ccc(Cl)cc32)c1C | % | 79 |
| O=C1C(Cl)=C(N2C(=O)CCC2=O)C(=O)c2ccccc21 | % | 99 |
| Nc1ncnc2[nH]nc(Nc3ccc(F)cc3)c12 | % | 105 |
| O=C(O)/C=C/c1cc(Br)c(Br)c(Br)c1Br | % | 109 |

Challenge: Report residual activity for `O=C(c1ccccc1)c1ccc(N2CCOCC2)cc1O` please.
Response given: 79

Challenge: Give its residual activity value. Item: `CN(C)S(=O)(=O)c1ccc2c(c1)/C(=C/c1cc3c([nH]1)CCCC3)C(=O)N2`
Response given: 94

* * *

- Measurement target: ALK tyrosine kinase receptor (Homo sapiens) (UniProt Q9UM73)
- Sequence (Q9UM73 19-1620 limits assumed): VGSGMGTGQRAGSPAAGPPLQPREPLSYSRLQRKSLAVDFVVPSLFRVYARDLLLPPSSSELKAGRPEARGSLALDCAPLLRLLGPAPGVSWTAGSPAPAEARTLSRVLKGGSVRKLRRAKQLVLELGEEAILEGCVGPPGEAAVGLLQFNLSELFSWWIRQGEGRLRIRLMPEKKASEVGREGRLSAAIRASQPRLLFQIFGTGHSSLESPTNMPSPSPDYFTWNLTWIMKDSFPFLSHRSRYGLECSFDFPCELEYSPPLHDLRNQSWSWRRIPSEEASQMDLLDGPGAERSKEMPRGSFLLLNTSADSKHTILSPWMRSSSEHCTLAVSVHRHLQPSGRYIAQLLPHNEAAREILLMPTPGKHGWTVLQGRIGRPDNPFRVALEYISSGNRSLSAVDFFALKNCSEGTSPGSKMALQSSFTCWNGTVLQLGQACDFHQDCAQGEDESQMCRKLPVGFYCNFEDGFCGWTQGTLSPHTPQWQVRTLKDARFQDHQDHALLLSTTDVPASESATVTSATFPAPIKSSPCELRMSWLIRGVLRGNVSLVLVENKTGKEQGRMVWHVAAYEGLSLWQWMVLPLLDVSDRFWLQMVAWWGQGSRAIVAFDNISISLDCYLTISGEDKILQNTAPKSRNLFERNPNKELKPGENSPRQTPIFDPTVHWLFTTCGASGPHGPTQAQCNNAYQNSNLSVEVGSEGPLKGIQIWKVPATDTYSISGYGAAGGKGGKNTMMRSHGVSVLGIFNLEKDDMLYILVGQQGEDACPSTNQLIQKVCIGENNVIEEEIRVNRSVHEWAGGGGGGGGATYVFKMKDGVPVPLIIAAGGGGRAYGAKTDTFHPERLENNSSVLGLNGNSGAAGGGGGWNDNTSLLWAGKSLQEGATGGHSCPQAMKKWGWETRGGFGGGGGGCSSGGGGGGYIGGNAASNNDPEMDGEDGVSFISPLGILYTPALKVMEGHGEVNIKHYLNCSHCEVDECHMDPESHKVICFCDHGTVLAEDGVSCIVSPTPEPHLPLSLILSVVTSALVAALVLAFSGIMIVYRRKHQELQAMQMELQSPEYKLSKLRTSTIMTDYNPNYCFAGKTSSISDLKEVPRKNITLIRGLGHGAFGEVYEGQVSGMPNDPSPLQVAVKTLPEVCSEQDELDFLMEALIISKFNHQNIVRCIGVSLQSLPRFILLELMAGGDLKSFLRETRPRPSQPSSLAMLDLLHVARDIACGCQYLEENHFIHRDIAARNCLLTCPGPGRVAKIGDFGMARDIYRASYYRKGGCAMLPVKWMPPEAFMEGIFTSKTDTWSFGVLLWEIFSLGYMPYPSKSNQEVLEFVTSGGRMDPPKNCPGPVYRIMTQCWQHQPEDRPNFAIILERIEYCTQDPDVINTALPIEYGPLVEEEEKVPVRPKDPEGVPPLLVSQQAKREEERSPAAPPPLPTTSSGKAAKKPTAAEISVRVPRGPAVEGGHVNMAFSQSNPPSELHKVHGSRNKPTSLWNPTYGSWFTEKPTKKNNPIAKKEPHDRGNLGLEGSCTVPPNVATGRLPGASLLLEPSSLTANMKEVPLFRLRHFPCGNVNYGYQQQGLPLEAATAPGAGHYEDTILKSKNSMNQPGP
- Test context: at 10 µM
Reported residual activity by item:
// note: answer is a bare numeric in %

Example molecules with recorded residual activity:
| Structure smiles | Measurement target | residual activity [%] |
| --- | --- | --- |
| O=c1cc(N2CCNCC2)oc2c(-c3ccccc3)cccc12 | ALK tyrosine kinase receptor (Homo sapiens) (UniProt Q9UM73) | 49 |
| CCOc1nc(NC(=O)Cc2cc(OC)ccc2OC)cc(N)c1C#N | ALK tyrosine kinase receptor (Homo sapiens) (UniProt Q9UM73) | 69 |

Then there is this molecule:
Challenge: Could you share which residual activity value was measured for `Nc1n[nH]c2nc3ccccc3nc12` ?
Response given: 51

* * *

- Measurement target: Serine/threonine-protein kinase 4 (Homo sapiens)
- Sequence (whole entry): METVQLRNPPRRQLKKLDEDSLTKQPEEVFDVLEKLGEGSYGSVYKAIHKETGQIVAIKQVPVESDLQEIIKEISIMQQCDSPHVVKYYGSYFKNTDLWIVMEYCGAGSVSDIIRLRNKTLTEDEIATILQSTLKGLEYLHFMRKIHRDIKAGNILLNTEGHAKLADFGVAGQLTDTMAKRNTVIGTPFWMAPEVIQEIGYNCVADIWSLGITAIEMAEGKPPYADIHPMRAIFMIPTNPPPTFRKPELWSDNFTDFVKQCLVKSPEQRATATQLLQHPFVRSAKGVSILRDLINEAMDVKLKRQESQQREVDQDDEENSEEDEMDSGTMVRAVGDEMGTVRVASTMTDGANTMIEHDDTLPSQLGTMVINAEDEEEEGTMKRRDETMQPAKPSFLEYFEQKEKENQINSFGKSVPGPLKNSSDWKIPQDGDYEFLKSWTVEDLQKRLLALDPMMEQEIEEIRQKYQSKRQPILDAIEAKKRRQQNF
- Test context: at 1 µM
Property measured: residual activity (%)
State just the number; it will be interpreted in %.

| Molecule | Measured |
| --- | --- |
| O=C(Nc1nc2ccccc2n1CCN1CCOCC1)c1cccc([N+](=O)[O-])c1 | 88 |

Challenge: Entry under review: `CCN(CC)CCNC(=O)c1c(C)[nH]c(/C=C2\C(=O)Nc3ccc(Cl)cc32)c1C` . Reported residual activity?
Response given: 12

Challenge: Given `O=C1NC(=O)c2c1c1c3ccccc3[nH]c1n1cncc21` , state its recorded residual activity.
Response given: 40

Challenge: // lookup residual activity for `O=C1Cc2c([nH]c3ccc([N+](=O)[O-])cc23)-c2ccccc2N1`
Response given: 33

Challenge: Look at this molecule and give its reported residual activity. O=C(NC(NC(=S)Nc1ccc(F)c([N+](=O)[O-])c1)C(Cl)(Cl)Cl)C(c1ccccc1)c1ccccc1 (centres undefined)
Response given: 92

Challenge: Which value of residual activity has been reported for `O=C(O)/C=C/c1cc(Br)c(Br)c(Br)c1Br` in the records?
Response given: 97
